Data origin, for the record: patent US20210324359A1

Test system: P. aeruginosa strain WC-453
protocol_summary: Time-kill assay in HEPES or CAA with 25% human serum (Tables 7, 8)
Format: cell-based, Pseudomonas aeruginosa
experimental_context: 25 mM HEPES pH 7.4; lysin 10 μg/ml; 3 hr; WC-453
metric_name: HEPES (Log10 CFU/mL), 3 hr

- molecule: "GN65: Lysin GN65, used as control (protein, (1)..(264) GN316 lysin) MAILKIGSKGLEVKNLQTSLNKIGFNLVADGIFGKATDNAVRAVQAGAGLVVDGIAGPKTMYAIRNAGESHQDHLTEADLIDAARELSVDLASIKAVNQVESRGTGFTKSGKIKTLFERHIMYKKLNAKFGQAKANALAQLYPTLVNAKAGGYTGGDAELERLHGAIAIDKDCAYESASYGLFQIMGFNCVICGYDNAEEMFNDFLTGERAQLMAFVKFIKADANLWKALKDKNWAEFARRYNGPAYAQNQYDTKLAAAYKSFS"
  HEPES (Log10 CFU/mL), 3 hr: "<3.7 Log10 CFU/mL"
- molecule: "GN121: variant lysin (SEQ ID NO: 175), also disclosed in WO 2019/118632 (protein) MTYTLSKRSLDNLKGVHPDLVAVVHRAIQLTPVDFAVIEGLRSVSRQKELVAAGASKTMNSRHLTGHAVDLAAYVNGIRWDWPLYDAIAVAVKAAAKELGVAIVWGGDWTTFKDGPHFELDRSKYRRKKTRKRLKKIGKVLKWI"
  HEPES (Log10 CFU/mL), 3 hr: "<3.7 Log10 CFU/mL"

Shifting focus to the molecule that follows.
Input: Looking for the measured HEPES (Log10 CFU/mL), 3 hr of GN11: lysin obtained from Pseudomonas putida KT2440 (SEQ ID NO: 208) (protein, listed as Pseudomonas putida) MTYNAGTKPRAETDYLVVHCSATRPSQDIGAADINRWHRAKGWRCIGYHFVIRRNGVVEEGRELDQIGAHVEGHNINSVGICMAGGVTEADINVPENNFTPEQFASLKHLLGELKEKYPSATIQGHRDFPKVAKACPSFDVKPWVAANL , can you help?
Output: <3.7 Log10 CFU/mL
